SYSTEM UNDER TEST: hNR2B (Homo sapiens, UniProt Q05586+Q13224)
Sequence (Q13224 27-1484, other chains not shown): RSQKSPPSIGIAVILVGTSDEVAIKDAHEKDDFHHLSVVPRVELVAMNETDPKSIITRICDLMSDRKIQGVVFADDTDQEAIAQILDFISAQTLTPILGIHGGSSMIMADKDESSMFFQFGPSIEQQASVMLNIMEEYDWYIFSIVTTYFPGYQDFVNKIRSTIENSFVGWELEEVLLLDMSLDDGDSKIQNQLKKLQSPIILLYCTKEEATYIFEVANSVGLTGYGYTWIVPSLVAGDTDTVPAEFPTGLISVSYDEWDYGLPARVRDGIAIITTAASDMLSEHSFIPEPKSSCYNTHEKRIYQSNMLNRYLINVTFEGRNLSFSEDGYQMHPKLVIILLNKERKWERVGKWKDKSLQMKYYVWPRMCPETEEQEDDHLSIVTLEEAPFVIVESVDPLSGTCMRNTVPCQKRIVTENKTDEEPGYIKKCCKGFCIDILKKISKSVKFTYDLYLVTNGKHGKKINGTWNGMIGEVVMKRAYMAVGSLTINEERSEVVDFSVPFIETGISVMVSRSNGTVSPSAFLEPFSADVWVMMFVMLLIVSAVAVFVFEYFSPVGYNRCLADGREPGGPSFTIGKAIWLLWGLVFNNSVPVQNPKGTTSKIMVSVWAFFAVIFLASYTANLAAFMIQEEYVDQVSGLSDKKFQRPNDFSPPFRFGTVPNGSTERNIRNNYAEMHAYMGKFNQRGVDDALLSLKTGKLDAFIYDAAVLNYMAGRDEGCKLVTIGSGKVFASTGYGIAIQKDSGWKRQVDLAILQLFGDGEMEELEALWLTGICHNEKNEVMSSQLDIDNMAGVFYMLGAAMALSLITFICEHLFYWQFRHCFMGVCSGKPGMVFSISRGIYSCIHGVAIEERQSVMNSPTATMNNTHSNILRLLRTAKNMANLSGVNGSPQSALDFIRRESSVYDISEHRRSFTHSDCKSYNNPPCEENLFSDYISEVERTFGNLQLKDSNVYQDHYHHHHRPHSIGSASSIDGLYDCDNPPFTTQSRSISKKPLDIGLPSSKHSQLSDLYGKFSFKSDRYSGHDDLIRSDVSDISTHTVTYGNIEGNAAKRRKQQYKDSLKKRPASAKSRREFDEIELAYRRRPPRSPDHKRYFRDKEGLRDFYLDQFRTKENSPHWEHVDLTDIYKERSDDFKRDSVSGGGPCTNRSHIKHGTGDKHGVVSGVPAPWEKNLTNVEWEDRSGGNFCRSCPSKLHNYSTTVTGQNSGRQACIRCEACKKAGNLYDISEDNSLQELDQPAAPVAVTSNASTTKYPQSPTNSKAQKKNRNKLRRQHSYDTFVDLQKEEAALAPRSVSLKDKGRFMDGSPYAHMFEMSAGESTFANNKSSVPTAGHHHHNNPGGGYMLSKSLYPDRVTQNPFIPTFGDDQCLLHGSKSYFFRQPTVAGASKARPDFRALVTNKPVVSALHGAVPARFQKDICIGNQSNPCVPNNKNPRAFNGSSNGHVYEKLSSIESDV
MEASUREMENT NOTES: Electrophysiology NMDA receptor experiments: two electrode voltage-clamp in Xenopus laevis oocytes expressing GluN1/GluN2 subunits
Type: cell-based
TEST CONDITIONS: oocytes voltage clamped at −40 mV; 50 μM glutamate, 30 μM glycine; read-out: hNR2B IC50
Some molecules, each annotated with its measured pIC50.
Quick note: pIC50 means taking -log10 of the concentration in moles per liter.

Sample answers from the record:
| TEST SMILES | MEASURE NAME | RESULT |
| --- | --- | --- |
| Cc1ccc(Nc2ncc(COc3ccc4[nH]c(=O)ccc4c3)cn2)cc1F | pIC50 | 7.00 |
| O=c1ccc2cc(OCc3ccc(NCc4ccc(Cl)cc4)nc3)ccc2[nH]1 | pIC50 | 7.06 |

// below: pIC50 requested for another molecule
Note to self: pIC50 recorded for Cc1ccc(Nc2ncc(COc3ccc4[nH]c(=O)ccc4c3)cn2)cc1 was 7.01
